# Test system: HOP-92 NSCLC
# METHOD: NCI tumour cell line growth inhibition, 48 h
MEASUREMENT TYPE: TGI

1) O=C1C=CC(=O)c2cc3cc(CBr)ccc3cc21: 9.93 µM
2) CC(C)C(=O)OCC1OC(n2c(Br)nc3c(=O)[nH]c(N)nc32)C(OC(=O)C(C)C)C1OC(=O)C(C)C (stereo not given): > 100 µM
3) CCOC(=O)CN1C(=O)c2ccc(NC(=O)C(=O)O)cc2S1(=O)=O: > 100 µM
4) COc1ccc(/C=C2\N=C(SC)N(CN3CCOCC3)C2=O)cc1: 67.4 µM
5) Cc1ccnc2[nH]c3ccccc3c(=O)c12: > 100 µM
6) COc1ccc(-c2nn(-c3ccc(NC(=O)c4ccc(Cl)c(Cl)c4)cc3)cc2-c2ccncc2)cc1Cl: > 50 µM
7) COC(=O)c1cc2ccc(N)nc2[nH]c1=O: > 100 µM
8) CN=C1CC2c3cc(OC)c(OC)cc3CCN2C2=C1C(=O)CC(C)(C)C2 (stereo not given): > 100 µM
9) O=C(CC1(O)C(=O)N(Cc2ccccc2)c2ccc(F)cc21)c1ccc(C(=O)NCC2CCC3(CC2)OOC2(CCCCC2)OO3)cc1 (stereo not given): 0.378 µM
10) COc1cc2c(c(OC)c1OC)-c1ccc(SC)c(=O)cc1C(NC=O)CC2 (stereo not given): > 100 µM
